Assign MRGPRX4 activation, Average to each entry below.
tested.on: MRGPRX4 (Homo sapiens, UniProt Q96LA9)
Sequence (Q96LA9 whole entry): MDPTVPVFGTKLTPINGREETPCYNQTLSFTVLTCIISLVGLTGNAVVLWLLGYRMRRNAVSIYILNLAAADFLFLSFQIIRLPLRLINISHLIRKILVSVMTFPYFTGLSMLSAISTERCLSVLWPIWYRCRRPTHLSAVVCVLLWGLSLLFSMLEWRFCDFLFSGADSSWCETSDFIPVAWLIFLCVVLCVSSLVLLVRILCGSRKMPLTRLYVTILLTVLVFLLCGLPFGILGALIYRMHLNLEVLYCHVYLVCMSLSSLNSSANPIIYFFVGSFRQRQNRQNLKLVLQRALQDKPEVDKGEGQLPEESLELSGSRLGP
assay.overview: MRGPRX4 activation, Fluo-8 Ca2+ FLIPR assay in HEK293T cells stably expressing MRGPRX4
Assay type: cell-based
Set-up: key: fluorescence change dF/F0
settings: E3-6-2, concentration not given
Protocol: In some embodiments, cells were cultured in poly-D-Lys coated blacked walled, clear-bottom 96-well microplates. […] The concentration of solution should be determined according to the protocol settings and experimental needs (e.g., Log[M]=−4, −5, −6, −7, −8, and −9). […] A fluorescent signal baseline was measured using FLIPR®Tetra for 30 s. […] The fluorescent signal would be measured for another 150 s. Activity of each compound was calculated by the fluorescence change (dF/F0). […]
# answer = number (no unit)

Task item: Please report the recorded MRGPRX4 activation, Average for CC[C@H]1[C@@H](O)[C@@H]2[C@H](CC[C@]3(C)[C@@H]([C@H](C)CCNC(=O)NS(=O)(=O)N4CC5CC5C4)CC[C@@H]23)[C@@]2(C)CCCC[C@@H]12 (stereo partly shown) .
Reply: 0.013

Task item: MRGPRX4 activation, Average lookup needed for CC[C@H]1[C@@H](O)[C@@H]2[C@H](CC[C@]3(C)[C@@H]([C@H](C)CCNC(=O)NS(=O)(=O)Cc4ccccc4)CC[C@@H]23)[C@@]2(C)CCCC[C@@H]12 , thanks.
Reply: 0.017

Task item: Request the reported MRGPRX4 activation, Average associated with CCCCS(=O)(=O)NC(=O)NCC[C@@H](C)[C@H]1CC[C@H]2[C@@H]3[C@H](O)[C@H](CC)[C@@H]4CCCC[C@]4(C)[C@H]3CC[C@]12C
Reply: 0.017

Task item: I would be grateful if you could share the reported MRGPRX4 activation, Average for CC[C@H]1[C@@H](O)[C@@H]2[C@H](CC[C@]3(C)[C@@H]([C@H](C)CCNC(=O)NS(=O)(=O)N(C)C)CC[C@@H]23)[C@@]2(C)CCCC[C@@H]12 .
Reply: 0.010

---

tested.on: MRGPRX4 (Homo sapiens, UniProt Q96LA9)
assay.overview: MRGPRX4 activation, Fluo-8 Ca2+ FLIPR assay in HEK293T cells stably expressing MRGPRX4
Format: cell-based
settings: Conc. (Log[M]) −8
Would you please tag the item MET when its MRGPRX4 activation, fluorescence change (dF/F0), Average is -0.02 or above, and NOT MET when it is below?

Task item: Kindly determine if MRGPRX4 activation, fluorescence change (dF/F0), Average recorded for CC[C@H]1[C@@H](O)[C@@H]2[C@H](CC[C@]3(C)[C@@H]([C@H](C)CCC(=O)O)CC[C@@H]23)[C@@]2(C)CCCC[C@@H]12 is above or exactly -0.02.
Reply: NOT MET

Task item: Would you say CC(C[C@@H](C)[C@H]1CC[C@H]2[C@@H]3CC[C@@H]4CCCC[C@]4(C)[C@H]3CC[C@]12C)C(=O)O (stereo partly shown) shows MRGPRX4 activation, fluorescence change (dF/F0), Average at minimum -0.02?
Reply: NOT MET

Task item: Evaluate CC[C@H]1[C@@H](O)[C@@H]2[C@H](CC[C@]3(C)[C@@H]([C@H](C)CCNC(=O)NS(=O)(=O)C4CCCCC4)CC[C@@H]23)[C@@]2(C)CCCC[C@@H]12 : MRGPRX4 activation, fluorescence change (dF/F0), Average at minimum -0.02?
Reply: MET

Task item: Does MRGPRX4 activation, fluorescence change (dF/F0), Average meet or surpass -0.02 for CC[C@H]1[C@@H](O)[C@@H]2[C@H](CC[C@]3(C)[C@@H]([C@H](C)CC#N)CC[C@@H]23)[C@@]2(C)CCCC[C@@H]12 ?
Reply: NOT MET

Task item: Given C[C@H](CCCO)[C@H]1CC[C@H]2[C@@H]3CC[C@@H]4CCCC[C@]4(C)[C@H]3CC[C@]12C , state whether its MRGPRX4 activation, fluorescence change (dF/F0), Average is at least -0.02.
Reply: MET

Task item: Given C[C@H](CCC(C)(C)O)[C@H]1CC[C@H]2[C@@H]3CC[C@@H]4CCCC[C@]4(C)[C@H]3CC[C@]12C , state whether its MRGPRX4 activation, fluorescence change (dF/F0), Average is at least -0.02.
Reply: NOT MET

Task item: Determine whether this compound has MRGPRX4 activation, fluorescence change (dF/F0), Average no lower than -0.02: C[C@H](CCC(=O)O)[C@H]1CC[C@H]2[C@@H]3CC[C@@H]4C[C@@H](O)CC[C@]4(C)[C@H]3C[C@H](O)[C@]12C
Reply: NOT MET

Task item: Item C[C@H](CCCC(=O)O)[C@H]1CC[C@H]2[C@@H]3CC[C@@H]4C[C@H](O)CC[C@]4(C)[C@H]3C[C@H](O)[C@]12C with MRGPRX4 activation, fluorescence change (dF/F0), Average of -0.02 or above?
Reply: MET

Task item: Check if MRGPRX4 activation, fluorescence change (dF/F0), Average >= -0.02 (inclusive). Item: CC[C@H]1[C@@H](O)[C@@H]2[C@H](CC[C@]3(C)[C@@H]([C@H](C)CO)CC[C@@H]23)[C@@]2(C)CCCC[C@@H]12
Reply: NOT MET

Task item: State whether the measured MRGPRX4 activation, fluorescence change (dF/F0), Average reaches -0.02, counting equality as reaching it, for CC[C@H]1[C@@H](OC(=O)c2cccc(I)c2)[C@@H]2[C@H](CC[C@]3(C)C([C@H](C)CCC(=O)OC)=CC(=O)[C@@H]23)[C@@]2(C)CCCC[C@@H]12
Reply: MET

Task item: Dear colleague, could you confirm whether C[C@H](CCC(=O)O)[C@H]1CC[C@H]2[C@@H]3[C@H](O)C[C@@H]4C[C@H](O)CC[C@]4(C)[C@H]3CC[C@]12C [CDCA, chenodeoxycholic acid, reference compound] has MRGPRX4 activation, fluorescence change (dF/F0), Average at or above -0.02?
Reply: NOT MET

Task item: # bool: MRGPRX4 activation, fluorescence change (dF/F0), Average of C[C@]12CC[C@@H](O)C[C@H]1CC[C@@H]1[C@@H]2C[C@H](O)[C@]2(C)[C@@H](CCCCCC(=O)O)CC[C@@H]12 >= -0.02
Reply: MET

Task item: Could you verify whether the entry C[C@H](CCC(=O)O)[C@H]1CC[C@H]2[C@@H]3CC[C@@H]4C[C@@H](O)CC[C@]4(C)[C@H]3C[C@@H](O)[C@]12C shows MRGPRX4 activation, fluorescence change (dF/F0), Average of no less than -0.02?
Reply: MET

Task item: State whether the measured MRGPRX4 activation, fluorescence change (dF/F0), Average reaches -0.02, counting equality as reaching it, for CC[C@H]1[C@@H](O)[C@@H]2[C@H](CC[C@]3(C)[C@@H]([C@H](C)CCC(=O)OC)CC[C@@H]23)[C@@]2(C)CCCC[C@@H]12
Reply: MET

Task item: State whether the measured MRGPRX4 activation, fluorescence change (dF/F0), Average reaches -0.02, counting equality as reaching it, for C[C@H](CCC(=O)O)[C@H]1CC[C@H]2[C@@H]3CC[C@@H]4CC(=O)CC[C@]4(C)[C@H]3CC[C@]12C
Reply: MET

Task item: Textbook exercise: given the entry C[C@H](CC/C=C/C(=O)O)[C@H]1CC[C@H]2[C@@H]3CC[C@@H]4C[C@H](O)CC[C@]4(C)[C@H]3CC[C@]12C , state whether its MRGPRX4 activation, fluorescence change (dF/F0), Average is greater than or equal to -0.02.
Reply: NOT MET

Task item: API: above_or_equal(metric=MRGPRX4 activation, fluorescence change (dF/F0), Average, cutoff=-0.02) for item C[C@H](CC(=O)O)[C@H]1CC[C@H]2[C@@H]3CC[C@@H]4C[C@H](O)CC[C@]4(C)[C@H]3C[C@H](O)[C@]12C
Reply: MET

Task item: Kindly determine if MRGPRX4 activation, fluorescence change (dF/F0), Average recorded for CC[C@H]1[C@@H](O)[C@@H]2[C@H](CC[C@]3(C)[C@@H]([C@H](C)CCC(=O)NS(=O)(=O)C(C)(C)C)CC[C@@H]23)[C@@]2(C)CCCC[C@@H]12 is above or exactly -0.02.
Reply: MET

Task item: Confirm if MRGPRX4 activation, fluorescence change (dF/F0), Average reported for the compound C[C@H](CCCCC(=O)O)[C@H]1CC[C@H]2[C@@H]3CC[C@@H]4C[C@H](O)CC[C@]4(C)[C@H]3CC[C@]12C is -0.02 or above.
Reply: MET

Task item: Decide: is the reported value of MRGPRX4 activation, fluorescence change (dF/F0), Average for CC[C@H]1[C@@H](O)[C@@H]2[C@H](CC[C@]3(C)[C@@H]([C@H](C)CCNC(=O)NS(=O)(=O)c4cc(F)ccc4F)CC[C@@H]23)[C@@]2(C)CC[C@H](F)C[C@@H]12 equal to or greater than -0.02?
Reply: NOT MET

Task item: Confirm if MRGPRX4 activation, fluorescence change (dF/F0), Average reported for the compound CC[C@H]1[C@@H](OC(=O)c2cccc(I)c2)[C@@H]2[C@H](CC[C@@]3(C)[C@H]2CC[C@]3(Cl)[C@H](C)CCC(=O)OC)[C@@]2(C)CCCC[C@@H]12 is -0.02 or above.
Reply: MET

Task item: Is it the case that CC[C@H]1[C@@H](OC(=O)c2cccc(I)c2)[C@@H]2[C@H](CC[C@]3(C)C([C@H](C)CCC(=O)OC)=CC[C@@H]23)[C@@]2(C)CCCC[C@@H]12 has MRGPRX4 activation, fluorescence change (dF/F0), Average reaching or exceeding -0.02?
Reply: MET
